The measured values listed here are drawn from ChEMBL document CHEMBL2385063.

# experiment: n-octanol-KH2PO4-Na2HPO4 buffer partition coefficient, log D of the compound at pH 7.4 by shake flask method
# Type: physicochemical
Binary call on logD: T from 0.1 upward, F beneath that.

Query: Determine whether measured logD meets or exceeds 0.1 for `O=C(O)Cn1c2c(c3cc(F)ccc31)CN(C(=O)c1cccc(Cl)c1)CC2`
Reply: F

Query: Next up: `O=C(O)Cn1c2c(c3cc(F)ccc31)CN(C(=O)Cc1c[nH]c3ccccc13)CC2`
Reply: F

Query: Next up: `O=C(O)Cn1c2c(c3cc(F)ccc31)CN(C(=O)c1cccs1)CC2`
Reply: T

Query: Next up: `O=C(O)Cn1c2c(c3ccccc31)CN(C(=O)c1ccccc1)CC2`
Reply: F

Query: Next up: `O=C(O)Cn1c2c(c3ccccc31)CN(C(=O)c1cccc(Cl)c1)CC2`
Reply: F

Query: Next up: `CCc1ccc(-c2ccc(C(=O)N3CCc4c(c5ccccc5n4CC(=O)O)C3)cc2)cc1`
Reply: T

Query: Next up: `O=C(O)Cn1c2c(c3cc(F)ccc31)CN(C(=O)Cc1cccc3ccccc13)CC2`
Reply: T

Query: Next up: `O=C(O)Cn1c2c(c3ccccc31)CN(C(=O)c1cccc3ccccc13)CC2`
Reply: T
